# credit: the supplement of paper PMC10567573

B1: C9orf9 (parent)
chain: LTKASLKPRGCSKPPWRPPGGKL

Variants of: B1
Protocol Summary: protein stability index of a GFP-peptide fusion (GPS, HEK-293T) (PSI 1-6); higher = more stable;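 note: lentivirally expressed fusions sorted by FACS into six bins by GFP to DsRed ratio, PSI derived from sequencing read proportions per bin multiplied by bin number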
Details: c terminus: native
Measurement Kind: protein stability index
Simply state the number, no unit and no words.

C11S | 2
S12N | 2.05
T2F | 1.95
G20R | 2.18
T2I | 1.86
K13R | 1.49
R9L | 2.96
G21A | 1.86
K7N | 2.32
K3E | 1.97

Given the entry "S5V" , report its measured protein stability index.
2.5
